Where do the numbers come from? From patent US6355799B1.

system: lambsquarters (Chenopodium album, CHEAL); assay: Pre-emerge test, greenhouse herbicide activity screening; assay type: in vivo; details: pre-emerge, 63 g ai/ha, 14 days after application, scale 0-100
OBSERVATION_TYPE: phytotoxicity rating CHEAL

Example results:
Specify phytotoxicity rating CHEAL for C=Cc1ccc(C(=O)N(C(=O)c2ccc(C=C)cc2)c2c(OC)c(Br)cc(F)c2-n2c(=O)cc(C(F)(F)F)n(C)c2=O)cc1 , system lambsquarters (Chenopodium album, CHEAL).
0

Specify phytotoxicity rating CHEAL for COc1c(Br)cc(F)c(-n2c(=O)cc(C(F)(F)F)n(C)c2=O)c1N(C(=O)C=Cc1ccccc1)C(=O)C=Cc1ccccc1 , system lambsquarters (Chenopodium album, CHEAL).
20

Specify phytotoxicity rating CHEAL for Cn1c(C(F)(F)F)cc(=O)n(-c2ccc(C#N)cc2NC(=O)C=Cc2ccccc2)c1=O , system lambsquarters (Chenopodium album, CHEAL).
100

Specify phytotoxicity rating CHEAL for Cn1c(C(F)(F)F)cc(=O)n(-c2c(F)cc(Cl)cc2NC(=O)c2ccc3ccccc3c2)c1=O , system lambsquarters (Chenopodium album, CHEAL).
100

// each listed compound needs a value for phytotoxicity rating CHEAL
1. COc1c(C#N)cc(F)c(-n2c(=O)cc(C(F)(F)F)n(C)c2=O)c1NC(=O)c1ccc2ccccc2c1
2. Cn1c(C(F)(F)F)cc(=O)n(-c2c(F)cc(Cl)cc2NC2CC2)c1=O
3. Cn1c(C(F)(F)F)cc(=O)n(-c2ccc(Cl)cc2NC(=O)c2ccc3ccccc3c2)c1=O

[100, 100, 90]
